# test-system: UniProtKB A3QJX7
# Sequence (A3QJX7 whole entry): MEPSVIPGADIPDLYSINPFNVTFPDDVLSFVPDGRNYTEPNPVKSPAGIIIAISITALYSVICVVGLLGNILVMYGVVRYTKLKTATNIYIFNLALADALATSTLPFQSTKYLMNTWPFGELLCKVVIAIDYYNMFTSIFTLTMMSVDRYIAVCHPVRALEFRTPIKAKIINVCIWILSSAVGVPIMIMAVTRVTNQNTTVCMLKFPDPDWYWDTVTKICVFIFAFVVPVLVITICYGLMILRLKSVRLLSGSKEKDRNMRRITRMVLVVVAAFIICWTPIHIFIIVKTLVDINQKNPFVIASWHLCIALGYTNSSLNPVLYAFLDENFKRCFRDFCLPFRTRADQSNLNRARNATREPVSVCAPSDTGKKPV
# test-name: Displacement of [3H]DPN from zebrafish delta 1a opioid receptor expressed in HEK293 cell membranes after 1 hr by scintillation counting method
Square brackets hold non-standard residues; d marks the D form. Peptide text beside a SMILES is read from it.
Recorded pKi by entry
Just so you know, pKi here is -log10 of the concentration in molar units; reply with that number alone.

Check out these entries, answers already filled in.
molecule	observed-measurement
CSCC[C@@H](NC(=O)[C@@H](N)Cc1ccc(O)cc1)C(=O)NCC(=O)N[C@@H](Cc1ccccc1)C(=O)N1C[C@@H](O[C@@H]2O[C@H](CO)[C@@H](O[C@H]3O[C@@H](CO)[C@@H](O)[C@@H](O)[C@@H]3O)[C@H](O)[C@H]2O)C[C@H]1C(N)=O	6.20
CSCC[C@@H](NC(=O)[C@@H](N)Cc1ccc(O)cc1)C(=O)NCC(=O)N[C@@H](Cc1ccccc1)C(=O)N1C[C@@H](O[C@@H]2O[C@H](CO)[C@@H](O[C@H]3O[C@@H](CO)[C@H](O)[C@@H](O)[C@@H]3O)[C@H](O)[C@H]2O)C[C@H]1C(N)=O	6.07
CSCC[C@@H](NC(=O)[C@@H](N)Cc1ccc(O)cc1)C(=O)NCC(=O)N[C@@H](Cc1ccccc1)C(=O)N1C[C@@H](O[C@H]2O[C@H](CO)[C@@H](O)[C@H](O)[C@@H]2O)C[C@H]1C(N)=O	6.22
CSCC[C@@H](NC(=O)[C@@H](N)Cc1ccc(O)cc1)C(=O)NCC(=O)N[C@@H](Cc1ccccc1)C(=O)N1CCC[C@H]1C(N)=O (H-Y[dM]GFP-NH2)	6.25

Notebook: CSCC[C@@H](NC(=O)[C@@H](N)Cc1ccc(O)cc1)C(=O)NCC(=O)N[C@@H](Cc1ccccc1)C(=O)N1C[C@@H](O[C@@H]2O[C@H](CO)[C@@H](O)[C@H](O)[C@H]2O)C[C@H]1C(N)=O , pKi read as 6.41

Notebook: CSCC[C@@H](NC(=O)[C@@H](N)Cc1ccc(O)cc1)C(=O)NCC(=O)N[C@@H](Cc1ccccc1)C(=O)N1C[C@@H](O[C@@H]2O[C@H](CO)[C@H](O)[C@H](O)[C@H]2O)C[C@H]1C(N)=O , pKi read as 6.33
